Target: mRORγ (Mus musculus, UniProt P51450)
Construct: expressed in transfected cells; host or cells: CHO cells, transient transfection
Sequence (P51450 with tags, fused parts or gaps): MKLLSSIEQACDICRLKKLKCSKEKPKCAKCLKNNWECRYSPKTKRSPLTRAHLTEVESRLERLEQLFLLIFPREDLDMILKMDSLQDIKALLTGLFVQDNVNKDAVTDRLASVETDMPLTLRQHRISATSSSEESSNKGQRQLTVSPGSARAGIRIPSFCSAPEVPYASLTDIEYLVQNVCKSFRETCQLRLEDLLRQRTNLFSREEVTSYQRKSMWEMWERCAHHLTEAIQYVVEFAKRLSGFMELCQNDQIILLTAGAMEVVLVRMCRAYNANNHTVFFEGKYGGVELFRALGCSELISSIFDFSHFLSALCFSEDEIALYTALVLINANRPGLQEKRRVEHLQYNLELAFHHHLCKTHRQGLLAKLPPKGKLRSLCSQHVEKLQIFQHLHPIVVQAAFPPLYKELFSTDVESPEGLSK
Assay comment: Transcriptional assay, Gal4-mRORγ with luciferase reporter in CHO cells
Assay type: cell-based
Test parameters: Table 1; antagonists, inhibition of basal Gal4-mRORγ transcription in CHO cells; read-out: Assay EC50 in micromolar at mRORγ Transcriptional
Collected EC50 values appear next to each entry.
Report the value in µM with no unit label.

// solved cases for EC50 follow
Compound structure string: CCCCc1ccc(S(=O)(=O)N(CC)c2ccc(C(O)(C(F)(F)F)C(F)(F)F)cc2)cc1
Observed result: 3.6
--
Compound structure string: CCN(c1ccc(C(O)(C(F)(F)F)C(F)(F)F)cc1)S(=O)(=O)c1ccc([N+](=O)[O-])cc1
Observed result: 0.26
--
Compound structure string: CCN(c1ccc(C(O)(C(F)(F)F)C(F)(F)F)cc1)S(=O)(=O)c1ccc(Br)cc1
Observed result: 0.12

Now take the following compound into account.
q: For mRORγ (Mus musculus, UniProt P51450), provide EC50 of CCN(c1ccc(C(O)(C(F)(F)F)C(F)(F)F)cc1)S(=O)(=O)c1ccc(C)cc1 please.
a: 0.21

====

Target: mLXRα (Liver X receptor alpha) (Mus musculus)
Construct: 172-455; expressed in transfected cells; host or cells: CHO cells, transient transfection
Sequence (Q9Z0Y9 172-445 limits assumed): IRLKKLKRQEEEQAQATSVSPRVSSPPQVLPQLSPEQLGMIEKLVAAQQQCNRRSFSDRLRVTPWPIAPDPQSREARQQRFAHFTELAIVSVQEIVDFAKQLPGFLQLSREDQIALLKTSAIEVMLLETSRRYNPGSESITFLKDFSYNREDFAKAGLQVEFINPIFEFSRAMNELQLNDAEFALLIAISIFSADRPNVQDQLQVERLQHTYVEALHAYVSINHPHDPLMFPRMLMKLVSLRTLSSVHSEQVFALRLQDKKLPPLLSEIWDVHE
Assay comment: Transcriptional assay of LXRα (Gal4-LXRα hybrid)
Format: cell-based
Test parameters: read-out: EC50 at LXRα in transcriptional assays
Parameter: EC50 (nM)
Report the value in nM with no unit label.

q: GET /values?readout=EC50&item= CCN(c1ccc(C(O)(C(F)(F)F)C(F)(F)F)cc1)S(=O)(=O)c1ccc([N+](=O)[O-])cc1
a: 1500

====

Target: mLXRα (Liver X receptor alpha) (Mus musculus)
Construct: 172-455; expressed in transfected cells; host or cells: CHO cells, transient transfection
Assay comment: Transcriptional assay of LXRα (Gal4-LXRα hybrid)
Type: cell-based
Test parameters: Table 7; no unit printed for this column (b114 gives 1.5 μM for OR-1050); read-out: Transcriptional Assay of LXRα EC50
pEC50: −log10 of the molar value.
Parameter: pEC50

// solved cases for pEC50 follow
Compound structure string: CCN(c1ccc(C(OC)(C(F)(F)F)C(F)(F)F)cc1)S(=O)(=O)c1ccccc1
pEC50: < 4.00

Compound structure string: O=C(O)CN(c1ccc(C(O)(C(F)(F)F)C(F)(F)F)cc1)S(=O)(=O)c1ccccc1
pEC50: < 4.00

q: GET /values?readout=pEC50&item= CCCCc1ccc(S(=O)(=O)N(CC)c2ccc(C(O)(C(F)(F)F)C(F)(F)F)cc2)cc1
a: < 4.70
